Record form. Attribute: EC50. Fill in for each entry.
- Tested Target: α7 nicotinic ACh receptor ion channel expressed in mammalian HEK 293 cells (Rattus norvegicus)
- Construct: expressed in transfected cells
- Sequence (Q05941 23-502): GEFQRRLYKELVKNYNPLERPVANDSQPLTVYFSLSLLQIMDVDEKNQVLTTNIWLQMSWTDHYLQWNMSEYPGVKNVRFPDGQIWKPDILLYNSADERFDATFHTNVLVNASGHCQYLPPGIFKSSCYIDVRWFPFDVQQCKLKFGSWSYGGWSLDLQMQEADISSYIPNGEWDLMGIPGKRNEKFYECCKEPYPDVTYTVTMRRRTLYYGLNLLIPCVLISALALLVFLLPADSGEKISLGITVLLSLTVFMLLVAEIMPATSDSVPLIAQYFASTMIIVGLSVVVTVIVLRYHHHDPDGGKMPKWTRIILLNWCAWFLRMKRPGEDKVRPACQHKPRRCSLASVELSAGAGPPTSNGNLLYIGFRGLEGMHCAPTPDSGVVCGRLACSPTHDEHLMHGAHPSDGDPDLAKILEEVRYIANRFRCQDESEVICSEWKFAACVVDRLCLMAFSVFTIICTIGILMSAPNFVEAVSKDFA
- Procedure Details: Ca2+-sensitive fluorescence-based assay for α7 nicotinic acetylcholine receptor channel function (FLIPR), agonist activity
- Assay type: cell-based
- Condition Label: FLIPR α7 (EC50, nM), HEK 293 cells, Ca2+ flux, agonist potency
Provide the reading as a plain figure in nM.

Look up EC50: c1ccc(-c2nc3n(n2)C[C@@]2(CN4CCC2CC4)O3)cc1 [Example 14b]
4.1

Look up EC50: c1cncc(-c2ccc3c(c2)nc2n3C[C@]3(CN4CCC3CC4)O2)c1 (single isomer, unassigned) [Example 13a]
2990

Look up EC50: Cc1c(Br)nc2n1CC1(CN3CCC1CC3)O2 (racemic)
71.4

Look up EC50: Brc1nc2n(c1Br)C[C@@]1(CN3CCC1CC3)O2 (single isomer, unassigned)
19.6

Look up EC50: `Clc1nc2n(c1Cl)C[C@@]1(CN3CCC1CC3)O2`
14.2

Look up EC50: Cc1ccc2c(c1)nc1n2C[C@@]2(CN3CCC2CC3)O1 (single isomer, unassigned)
5.1

Look up EC50: Clc1cccc2c1nc1n2C[C@]2(CN3CCC2CC3)O1 (single isomer, unassigned)
12100

Look up EC50: FC(F)(F)c1ccc2c(c1)nc1n2C[C@@]2(CN3CCC2CC3)O1 (single isomer, unassigned)
4.7

Look up EC50: Cc1cccc2c1nc1n2C[C@]2(CN3CCC2CC3)O1 (single isomer, unassigned) [Example 10a]
263

Look up EC50: Cc1cc2nc3n(c2cc1C)C[C@@]1(CN2CCC1CC2)O3 (single isomer, unassigned)
65.3

Look up EC50: Brc1cnc2c(c1)nc1n2CC2(CN3CCC2CC3)O1 (racemic)
49

Look up EC50: `Clc1nc2n(c1Cl)C[C@]1(CN3CCC1CC3)O2`
1500

Look up EC50: Cc1nc2n(c1Br)CC1(CN3CCC1CC3)O2 (racemic)
36.1

Look up EC50: c1cncc(-c2ccc3c(c2)nc2n3C[C@@]3(CN4CCC3CC4)O2)c1 (single isomer, unassigned) [Example 13b]
634

Look up EC50: Clc1cccc2nc3n(c12)C[C@@]1(CN2CCC1CC2)O3 (single isomer, unassigned)
347

Look up EC50: FC(F)(F)c1cccc2c1nc1n2C[C@]2(CN3CCC2CC3)O1 (single isomer, unassigned) [Example 11a]
32500

Look up EC50: COc1ccc2c(c1)nc1n2C[C@]2(CN3CCC2CC3)O1 (single isomer, unassigned)
1430

Look up EC50: Clc1cccc2c1nc1n2C[C@@]2(CN3CCC2CC3)O1 (single isomer, unassigned)
24.6

Look up EC50: COc1ccc2c(c1)nc1n2C[C@@]2(CN3CCC2CC3)O1 (single isomer, unassigned)
10.3

Look up EC50: Cc1cccc2c1nc1n2C[C@@]2(CN3CCC2CC3)O1 (single isomer, unassigned) [Example 10b]
9.1

Look up EC50: c1nc2n(n1)CC1(CN3CCC1CC3)O2 (racemic)
321

Look up EC50: c1ccc(-c2cn3c(n2)O[C@]2(CN4CCC2CC4)C3)cc1 [Example 21b]
53

Look up EC50: Cc1nc2c(cc1Br)nc1n2CC2(CN3CCC2CC3)O1 (racemic)
967

Look up EC50: c1ccc(-c2nc3n(n2)C[C@]2(CN4CCC2CC4)O3)cc1 [Example 14a]
437

Look up EC50: Clc1nc2n(n1)CC1(CN3CCC1CC3)O2 (racemic)
174

Look up EC50: Clc1cccc2nc3n(c12)C[C@]1(CN2CCC1CC2)O3 (single isomer, unassigned)
3950

Look up EC50: Clc1cnc2c(c1)nc1n2CC2(CN3CCC2CC3)O1 (racemic)
66

Look up EC50: Brc1nc2n(n1)CC1(CN3CCC1CC3)O2 (racemic)
362

Look up EC50: Brc1nc2n(c1Br)C[C@]1(CN3CCC1CC3)O2 (single isomer, unassigned)
5690

Look up EC50: Cc1ccc2nc3n(c2c1)C[C@@]1(CN2CCC1CC2)O3 (single isomer, unassigned)
35
